targetOrSystem: Pro-neuregulin-1, membrane-bound isoform (Homo sapiens)
assayMethodText: NRG1 binders on small-molecule microarrays, primary screen, psychiatric disease protein project, biochemical, small-molecule microarray, fluorescence 635/667 (AID 1075);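 also: score combines 667 nm spot fluorescence with signal to noise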
conditionLabel: NRG1 binding, 635 nm fluorescence, higher = more signal
Measured composite z-score, listed per entry.
Keep it simple and answer with nothing but the number.

Example compounds with recorded composite z-score:
compound=CC(C)CNC(=O)[C@@H]1c2ccccc2C(=O)N(C2CCCCC2)[C@H]1c1ccc(CO)cc1 measured=1.69
compound="CC(C)=CCCC(C)=CC(O)C1C=CC2C(=O)N(c3ccccc3)C(=O)C2N1Nc1ccccc1F (stereo unspecified)" measured=1.49
compound=Cc1cccc([C@H]2C[C@H]3C(I)=C[C@@H]2C(=O)[C@]32CO2)c1 measured=-0.507

## Task Which composite z-score is listed for Cc1ccc(S[C@]2(C(=O)NC(C)C)CC(=O)N(C(C)C)[C@@H]2c2ccc(CO)cc2I)cc1 ?
## Result 0.637

## Task Which composite z-score is listed for O=C1O[C@H](c2ccccc2)[C@H](c2ccccc2)N2[C@H]1[C@@H](C(=O)N1CCCCCCC1)[C@]1(C(=O)Nc3ccc(C#CC4(O)CCCCCC4)cc31)[C@H]2c1ccc(O)cc1 ?
## Result 1.36

## Task Which composite z-score is listed for CN(C)CCCNC(=O)[C@@H]1c2ccccc2C(=O)N(C2CCCCC2)[C@H]1c1ccc(CO)cc1 ?
## Result 1.59

## Task Which composite z-score is listed for CCCNC(=O)[C@@]1(Sc2ccc(C)cc2)CC(=O)N(C(C)C)[C@@H]1c1ccc(CO)cc1I ?
## Result 1.98

## Task Which composite z-score is listed for C[C@@H]1ON(c2ccc(I)cc2)[C@H](c2ccc(OC(=O)OC(C)(C)C)cc2)[C@H]1C(=O)N1C(=O)OC[C@H]1Cc1ccccc1 ?
## Result 0.178

## Task Which composite z-score is listed for Cc1ccc(S[C@]2(C(=O)NC(C)C)CC(=O)N(Cc3ccccc3Cl)[C@@H]2c2ccc(CO)cc2)cc1 ?
## Result 1.03

## Task Which composite z-score is listed for CCOC(=O)C1=C[C@@H](C(C)(C)C)N(S(=O)(=O)c2ccc(C)cc2)[C@H]1c1ccccc1 ?
## Result 0.4

## Task Which composite z-score is listed for COc1ccc(C(O)C2C=CC3C(=O)N(c4ccccc4)C(=O)C3N2Nc2ccccc2F)cc1 (stereo unspecified) ?
## Result 1.8

====

Tested on: Plasmodium falciparum Sir2 (PF13_0152, Sir2A)
assayMethodText: pfSir2 binders on small-molecule microarrays, primary screen, biochemical, small-molecule microarray, 635 nm fluorescence (AID 1098);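 also: score merges spot fluorescence intensity with its signal-to-noise ratio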
conditionLabel: small-molecule microarray binding, fluorescence 635 nm; higher = more signal
reportedProperty: composite z-score
Keep it simple and answer with nothing but the number.

Example molecules with recorded composite z-score:
molecule=NC(=O)[C@H]1[C@@H]2C(=O)O[C@@H](c3ccccc3)[C@@H](c3ccccc3)N2[C@@H](c2ccc(O)cc2)[C@]12C(=O)Nc1ccc(C#CC3=CCCCC3)cc12 reportedproperty="composite z-score" measured=-0.165
molecule=C=CCNC(=O)[C@H]1[C@@H]2C(=O)O[C@@H](c3ccccc3)[C@@H](c3ccccc3)N2[C@@H](c2ccc(OCCO)cc2)[C@]12C(=O)Nc1ccc(C#CCNC(N)=O)cc12 reportedproperty="composite z-score" measured=1.2
molecule=COCCOC(=O)N1C(=O)[C@@]2(c3ccccc31)[C@H](c1ccccc1OCCO)N1[C@H](c3ccccc3)[C@H](c3ccccc3)OC(=O)[C@H]1[C@@H]2C(=O)N1CCCCCCC1 reportedproperty="composite z-score" measured=1.91
molecule="CN1C(=O)C2C=CC(C(O)c3cc(C(F)(F)F)cc(C(F)(F)F)c3)N(Nc3ccccc3)C2C1=O (configuration not stated)" reportedproperty="composite z-score" measured=0.395

## Task Which composite z-score is listed for COC(=O)C1=CC(CCCO)=CC(C)N(Cc2cccc(OC(F)(F)F)c2)C=C1C(=O)OC (configuration not stated) ?
## Result 0.325

## Task Which composite z-score is listed for CCCC=C(CCC)[C@@H](NC(=O)CCc1ccccc1)c1ccc(C(F)(F)F)cc1 ?
## Result 1.08

## Task Which composite z-score is listed for CN(C)CCCCCCNC(=O)[C@@H]1C[C@@H]2C(=O)N[C@@H](CCCCN)C(=O)N2[C@@H]1c1ccc(O)cc1 ?
## Result 2.07
